system: HT-29; assay: NCI tumour cell line growth inhibition, 48 h
Calls of active or inactive are those of the source. Cut-off read from the data, not from the text of the source: active = GI50 up to about 1.1 µM and inactive = higher.
Respond with a class label; see active, inactive

COMPOUND	TARGET OR TEST SYSTEM	CLASS NAME
Cc1c2[nH]c3ccc(Br)cc3c2c(C)c2nccc(O)c12	HT-29	inactive
O=c1[nH]c(=O)c2ncn(-c3ccc([N+](=O)[O-])cn3)c2[nH]1	HT-29	inactive
COc1c(Br)cc(/C=C(\C#N)c2ccccn2)cc1Br	HT-29	inactive
COc1cc2c(cc1Oc1c(Oc3c(O)c(OC)cc4c3C(CC(C)C)N(C)CC4)c(OC)cc3c1C(CC(C)C)N(C)CC3)C(CC(C)C)N(C)CC2 (stereo not drawn)	HT-29	active
CC1(C)OB(O)OC1(C)C	HT-29	inactive

## Input Write down the call the test reported for this compound. Item: CN(C)CCNC(=O)c1cc(-c2nccn2C)nc2ccccc12
## Output inactive

## Input Write down the call the test reported for this compound. Item: Oc1ncc(N(CCCl)CCCl)c(O)n1 [URACIL MUSTARD]
## Output inactive

* * *

system: MCF7; experiment: NCI tumour cell line growth inhibition, 48 h
Active and inactive are the calls of the source. No stated cut-off is given here; in the data, active = GI50 up to about 1.1 µM and inactive = higher.
Measured GI50 by item

Here is how some compounds turned out for GI50.
COMPOUND	GI50
CCOC(=O)C(Cc1ccc(N(CCCl)CCCl)cc1)NC(=O)C(Cc1ccccc1)NC(C)=O (configuration not stated)	0.163 µM (active)
CC1=[N+](C)CCN1C	> 100 µM (inactive)
CCOC1=C(c2ccccc2)N2CCCCC2O1 (configuration not stated)	3.76 µM (inactive)

Per the reported MCF7 data, NNC(=O)COc1nc(-c2cccs2)nc2ccc(I)cc12 has GI50 of 15.8 µM (inactive)

Per the reported MCF7 data, C[N+](C)(C)C(Cc1c[nH]c(=S)[nH]1)C(=O)O (configuration not stated) has GI50 of > 100 µM (inactive)

Per the reported MCF7 data, COc1ccc(/C(CC2OC(=O)c3ccccc32)=N\NC(N)=O)cc1 (configuration not stated) has GI50 of > 100 µM (inactive)

Per the reported MCF7 data, CCOC(=O)/C(C(=S)NCc1ccccc1)=C(/N)N1CCCC1 has GI50 of > 100 µM (inactive)

* * *

Measured GI50 by item
test system: SF-295; assay: NCI tumour cell line growth inhibition, 48 h
Active and inactive are the calls of the source. Rule as the data show it: active = GI50 up to about 1.1 µM and inactive = higher.

Here is how some compounds turned out for GI50.
COMPOUND	TARGET OR TEST SYSTEM	GI50
COc1cc(-c2c(C#N)c(N)c(C#N)c3c2COc2ccccc2-3)cc(OC)c1OC	SF-295	24.9 µM (inactive)
CCCCN(CCCC)CC(O)c1cc(-c2ccc(Cl)c(Cl)c2)nc2c(Cl)cc(Cl)cc12 (stereo unspecified)	SF-295	> 100 µM (inactive)
Cc1ccc2c(c1)C(=O)c1ccc(C)nc1C2=O	SF-295	24.6 µM (inactive)

Per the reported SF-295 data, CN(C)/N=C/c1cn(C)c(=O)n(C)c1=O has GI50 of > 100 µM (inactive)

Per the reported SF-295 data, O=C(CCc1n[nH]c(=S)o1)Nc1cc(Cl)ccc1Cl has GI50 of > 100 µM (inactive)

* * *

system: SNB-19; assay: NCI tumour cell line growth inhibition, 48 h
Calls of active or inactive are those of the source. No stated cut-off is given here; in the data, active = GI50 up to about 1.1 µM and inactive = higher. Starred links: 1 amine or outer side, 2 acyl side, 3 side chain; linkers in the order of their positions; H or OH if unused. Positions of bridges follow the written chain, without caps; N, C: chain ends. Non-standard residues stand in square brackets, D forms with d. Residues, ends and D or L forms follow the SMILES beside them. ξ: configuration not given here. *: point of attachment. γ4hArg(2R,3R-(OH)2) = N=C(N)NCCC[C@H](N[*:1])[C@@H](O)[C@@H](O)C(=O)[*:2]; Gln(3S,4R-Me2) = C[C@H]([C@H](N)C(=O)O)[C@@H](C)C(N)=O; X50 = CC(C)C[C@H](C)[C@@H](O)[C@@H](C)C(=O)*; X51 = COC(c1ccc(O)cc1)C(N[*:1])C(=O)[*:2]; NMeQ = CN[C@@H](CCC(N)=O)C(=O)O; Thr(3ξ) = CC(O)[C@H](N)C(=O)O; NMeA = CN[C@@H](C)C(=O)O
Respond with a class label; see yes (1) = active, no (0) = inactive

MOLECULE	CLASS NAME
COc1ccc(N2C(=O)CSC2c2cc3cc(Br)ccc3nc2Cl)cc1 (stereo not drawn)	no (0)
OCCCc1cnco1	no (0)
O=C1c2ccccc2C2(O)c3cc4ccccc4cc3OC12O (stereo not drawn)	no (0)
O=c1c2ccccc2sc2c(CO)ccc(NCCN3CCCCC3)c12	no (0)
CC(C)CC(NC(=O)C(CI)Cc1ccccc1)C(=O)Nc1ccccc1 (stereo not drawn)	no (0)
CC1(C)C(=O)/C=C\C(=O)C(C)(C)C2=CC=C(O2)C(C)(C)C(=O)C(Br)C(Br)C(=O)C(C)(C)C2=CC=C1O2 (stereo not drawn)	no (0)
O=C(/C=C/CC(O)(c1ccccc1)c1ccccc1)Nc1ccccc1Cl	no (0)
COc1ccc2c(c1)CC[C@@H]1[C@@H]2CC[C@]2(C)C(=O)/C(=C/c3ccncc3)C[C@@H]12	no (0)

## Input Write down the call the test reported for this molecule. Item: COC(c1ccc(O)cc1)C1NC(=O)[C@H](CCC(N)=O)N(C)C(=O)[C@H](CC(C)C)NC(=O)[C@@H](CCCN=C(N)N)NC(=O)[C@H](C(C)O)NC(=O)[C@@H](NC(=O)[C@@H](NC(=O)[C@H](O)[C@H](O)[C@H](CCCN=C(N)N)NC(=O)[C@H](C)NC(=O)[C@H](C)[C@H](O)[C@@H](C)CC(C)C)[C@@H](C)[C@@H](C)C(N)=O)[C@@H](C)OC(=O)[C@H](C)N(C)C1=O (stereo partly drawn) (X50-A[γ4hArg(2R,3R-(OH)2)][Gln(3S,4R-Me2)]T[Thr(3ξ)][dR]L[NMeQ][X51][NMeA]; ester 4-C)
## Output yes (1)

## Input Write down the call the test reported for this molecule. Item: O=[N+]([O-])c1ccc(C(Nc2ccccc2)c2ccc3cccnc3c2O)cc1 (stereo not drawn)
## Output no (0)

## Input Write down the call the test reported for this molecule. Item: O=c1[nH]c2ccc(CC(=S)N3CCOCC3)cc2s1
## Output no (0)

## Input Write down the call the test reported for this molecule. Item: C[Si](C)(C)/C=C\CCO
## Output no (0)

## Input Write down the call the test reported for this molecule. Item: O=C(CCc1n[nH]c(=S)o1)Nc1cc(Cl)ccc1Cl
## Output no (0)

## Input Write down the call the test reported for this molecule. Item: COc1ccc2cc(CNCCCCCCNC(=O)Nc3cccc4ccccc34)ccc2c1
## Output no (0)

## Input Write down the call the test reported for this molecule. Item: COC(=O)C(C)(Cc1ccc2c(c1)nnn2C(C)=O)NC(C)=O (stereo not drawn)
## Output no (0)

## Input Write down the call the test reported for this molecule. Item: COc1c(C(=O)O)cccc1-c1cccc(C(=O)NCCN(CCNC(=O)c2cccc(-c3cccc(C(=O)O)c3OC)c2OC)CCNC(=O)c2cccc(-c3cccc(C(=O)O)c3OC)c2OC)c1OC
## Output no (0)
